experiment: self-splicing fitness, log relative to wild type (ln ratio); higher = more splicing; Tetrahymena group I intron in knt gene, E. coli kanamycin selection, DiMSum; sequences stand for … in CUCUCU…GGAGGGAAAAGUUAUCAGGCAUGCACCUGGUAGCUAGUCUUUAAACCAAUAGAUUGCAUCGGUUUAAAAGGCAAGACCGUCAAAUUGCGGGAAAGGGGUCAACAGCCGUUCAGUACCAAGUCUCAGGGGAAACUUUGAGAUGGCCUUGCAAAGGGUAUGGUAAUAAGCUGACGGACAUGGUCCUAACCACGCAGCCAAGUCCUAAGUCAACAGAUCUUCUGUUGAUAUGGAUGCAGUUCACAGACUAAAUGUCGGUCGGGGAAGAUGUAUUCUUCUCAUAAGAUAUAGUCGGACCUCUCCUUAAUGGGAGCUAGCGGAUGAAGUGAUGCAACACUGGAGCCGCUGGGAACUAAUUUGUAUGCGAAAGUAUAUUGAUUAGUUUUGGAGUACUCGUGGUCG; conditions: 37 °C;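 further: selection with 25 µg/mL kanamycin versus none on LB agar overnight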
READOUT KIND: self-splicing fitness (ln)
Reply with just the number.

Record request: self-splicing fitness (ln) value, item "GAUCAGCAAUAUUACGACGU"
0.682

###

experiment: self-splicing fitness, log relative to wild type (ln ratio); higher = more splicing; Tetrahymena group I intron in knt gene, E. coli kanamycin selection, DiMSum; sequences stand for … in CUCUCU…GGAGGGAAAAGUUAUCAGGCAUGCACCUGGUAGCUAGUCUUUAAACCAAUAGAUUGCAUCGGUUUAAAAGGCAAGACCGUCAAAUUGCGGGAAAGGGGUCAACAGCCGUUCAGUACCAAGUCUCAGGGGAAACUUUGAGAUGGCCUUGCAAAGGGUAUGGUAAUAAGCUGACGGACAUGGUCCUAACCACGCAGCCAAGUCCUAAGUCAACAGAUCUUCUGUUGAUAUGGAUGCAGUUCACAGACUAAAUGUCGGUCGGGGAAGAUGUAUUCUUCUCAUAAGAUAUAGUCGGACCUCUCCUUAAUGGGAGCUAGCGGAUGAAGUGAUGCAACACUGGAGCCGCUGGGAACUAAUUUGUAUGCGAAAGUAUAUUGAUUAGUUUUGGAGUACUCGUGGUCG; settings: 30 °C
# self-splicing fitness (ln) >= -0.2 gives Satisfied, anything below gives Not satisfied

Worked examples, 3 sequences total:
{"MACROMOLECULE SEQUENCE": "ACAGAGCAAUAUUACGGGCC", "CATEGORY LABEL": "Not satisfied"}
{"MACROMOLECULE SEQUENCE": "AGUUAGCAAUAUUACGGGCA", "CATEGORY LABEL": "Satisfied"}
{"MACROMOLECULE SEQUENCE": "CCCGAGCAAUAUUACGGUCU", "CATEGORY LABEL": "Not satisfied"}

I'd appreciate it if you could say whether "GCACAGCAAUAUUACGAUGA" has self-splicing fitness (ln) at least equal to -0.2.
Not satisfied

Check this sequence for self-splicing fitness (ln) at or above -0.2: "GACCAGCAAUAUUACGCGAG"
Not satisfied

Could you tell me if the measured self-splicing fitness (ln) of "AAACAGCAAUAUUACGACCU" reaches -0.2 or more?
Satisfied

Has "UAAGAGCAAUAUUACGCAGC" a recorded self-splicing fitness (ln) greater than or equal to -0.2?
Not satisfied

Decide: is the reported value of self-splicing fitness (ln) for "AAGCAGCAAUAUUACGUACC" equal to or greater than -0.2?
Not satisfied

Determine whether this sequence has self-splicing fitness (ln) no lower than -0.2: "GCGCAGCAAUAUUACGACUU"
Satisfied

###

test: self-splicing fitness, log relative to wild type (ln ratio); higher = more splicing; Tetrahymena group I intron in knt gene, E. coli kanamycin selection, DiMSum; sequences stand for … in CUCUCU…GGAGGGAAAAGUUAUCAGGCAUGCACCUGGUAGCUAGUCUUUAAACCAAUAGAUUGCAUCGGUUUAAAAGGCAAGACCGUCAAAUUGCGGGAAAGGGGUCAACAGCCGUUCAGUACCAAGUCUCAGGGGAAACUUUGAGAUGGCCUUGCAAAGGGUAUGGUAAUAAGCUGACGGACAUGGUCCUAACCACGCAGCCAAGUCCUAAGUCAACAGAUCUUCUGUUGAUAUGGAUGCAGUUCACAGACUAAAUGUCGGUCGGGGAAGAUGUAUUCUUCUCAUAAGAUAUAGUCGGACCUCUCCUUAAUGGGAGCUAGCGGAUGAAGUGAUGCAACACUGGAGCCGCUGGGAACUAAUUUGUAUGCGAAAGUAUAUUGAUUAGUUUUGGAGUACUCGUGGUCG; conditions: 30 °C
READOUT KIND: self-splicing fitness (ln)

{"MACROMOLECULE SEQUENCE": "CCGCAGCAAUAUUACGCCGA", "REPORTED MEASUREMENT": -2.35}
{"MACROMOLECULE SEQUENCE": "ACGUAGCAAUAUUACGGGAG", "REPORTED MEASUREMENT": -3.63}
{"MACROMOLECULE SEQUENCE": "CAUAAGCAAUAUUACGACAA", "REPORTED MEASUREMENT": -3.05}
{"MACROMOLECULE SEQUENCE": "AUAAAGCAAUAUUACGCCUC", "REPORTED MEASUREMENT": -0.875}
{"MACROMOLECULE SEQUENCE": "GGAGAGCAAUAUUACGGCAA", "REPORTED MEASUREMENT": -2.75}
{"MACROMOLECULE SEQUENCE": "GCUCAGCAAUAUUACGCGAC", "REPORTED MEASUREMENT": -3.49}
{"MACROMOLECULE SEQUENCE": "GCCAAGCAAUAUUACGACAG", "REPORTED MEASUREMENT": -3.63}
{"MACROMOLECULE SEQUENCE": "UGAUAGCAAUAUUACGGAUU", "REPORTED MEASUREMENT": -2.78}
{"MACROMOLECULE SEQUENCE": "ACCCAGCAAUAUUACGAGGA", "REPORTED MEASUREMENT": -0.706}
{"MACROMOLECULE SEQUENCE": "GGAAAGCAAUAUUACGGACG", "REPORTED MEASUREMENT": -0.879}

Returns the measured self-splicing fitness (ln) for the input sequence. Input: "GUCCAGCAAUAUUACGCGUA"
-0.0475

###

assay: self-splicing fitness, log relative to wild type (ln ratio); higher = more splicing; Tetrahymena group I intron in knt gene, E. coli kanamycin selection, DiMSum; sequences stand for … in CUCUCU…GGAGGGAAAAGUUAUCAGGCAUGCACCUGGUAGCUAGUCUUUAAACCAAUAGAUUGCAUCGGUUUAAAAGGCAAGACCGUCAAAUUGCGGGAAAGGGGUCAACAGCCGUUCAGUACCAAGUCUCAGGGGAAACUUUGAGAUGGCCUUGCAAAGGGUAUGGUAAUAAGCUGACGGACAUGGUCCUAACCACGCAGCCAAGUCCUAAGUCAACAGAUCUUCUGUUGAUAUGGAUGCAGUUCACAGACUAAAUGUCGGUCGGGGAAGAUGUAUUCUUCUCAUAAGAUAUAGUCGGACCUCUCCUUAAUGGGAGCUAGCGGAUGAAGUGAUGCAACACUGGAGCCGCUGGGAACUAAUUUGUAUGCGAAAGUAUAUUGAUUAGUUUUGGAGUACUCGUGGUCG; settings: 37 °C
Would you mind sorting the entries by self-splicing fitness (ln) according to these classes? low bin (below -2), mid bin (-2 to below -1), high bin (-1 or more)

Some solved cases for reference:
{"MACROMOLECULE SEQUENCE": "CUGGAGCAAUAUUACGGGGU", "CATEGORY LABEL": "mid bin"}
{"MACROMOLECULE SEQUENCE": "AUUCAGCAAUAUUACGCUAG", "CATEGORY LABEL": "high bin"}
{"MACROMOLECULE SEQUENCE": "AACAAGCAAUAUUACGUACG", "CATEGORY LABEL": "high bin"}
{"MACROMOLECULE SEQUENCE": "ACUCAGCAAUAUUACGCUUC", "CATEGORY LABEL": "mid bin"}
{"MACROMOLECULE SEQUENCE": "UUGUAGCAAUAUUACGUGUU", "CATEGORY LABEL": "low bin"}
{"MACROMOLECULE SEQUENCE": "GGCUAGCAAUAUUACGUUUG", "CATEGORY LABEL": "mid bin"}
{"MACROMOLECULE SEQUENCE": "AGAGAGCAAUAUUACGCGGU", "CATEGORY LABEL": "low bin"}
{"MACROMOLECULE SEQUENCE": "CCGCAGCAAUAUUACGAAAU", "CATEGORY LABEL": "low bin"}
{"MACROMOLECULE SEQUENCE": "CGCUAGCAAUAUUACGAGGC", "CATEGORY LABEL": "low bin"}
{"MACROMOLECULE SEQUENCE": "CCGUAGCAAUAUUACGGCAA", "CATEGORY LABEL": "low bin"}

Which self-splicing fitness (ln) category applies to "ACCCAGCAAUAUUACGGACA" here?
high bin

Given "ACAAAGCAAUAUUACGGUGC" , name the class its self-splicing fitness (ln) places it in.
low bin

Using the reported self-splicing fitness (ln), which band applies to "UAAAAGCAAUAUUACGACGU" ?
high bin

Class for "ACCGAGCAAUAUUACGAGGA" ?
low bin
